tested.target: cMET receptor tyrosine kinase (GST-cMET (969-1390)) (Homo sapiens)
Sequence (P08581 969-1390): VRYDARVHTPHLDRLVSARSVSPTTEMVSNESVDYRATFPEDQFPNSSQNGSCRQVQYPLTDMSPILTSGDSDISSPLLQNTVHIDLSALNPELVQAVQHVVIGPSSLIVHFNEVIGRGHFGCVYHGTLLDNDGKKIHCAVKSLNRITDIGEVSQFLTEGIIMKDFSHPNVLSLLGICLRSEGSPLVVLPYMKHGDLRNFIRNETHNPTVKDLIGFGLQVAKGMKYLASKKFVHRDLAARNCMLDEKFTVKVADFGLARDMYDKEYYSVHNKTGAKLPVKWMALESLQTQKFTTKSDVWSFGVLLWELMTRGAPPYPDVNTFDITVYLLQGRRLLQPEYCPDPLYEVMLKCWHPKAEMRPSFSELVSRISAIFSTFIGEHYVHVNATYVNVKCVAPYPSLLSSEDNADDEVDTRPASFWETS
assay: EPK cMET profiling assay (LanthaScreen TR-FRET antibody based kinase phosphorylation assay)
test.settings: purified recombinant GST-cMET (969-1390), 2 μM ATP, 50 nM Fluorescein-PolyEAY, 60 minutes at room temperature; read-out: c-Met IC50
pIC50: −log10 of the molar value.
Decide by pIC50: equal to or exceeding 7 means MET, less means NOT MET.

query: Determine whether measured pIC50 meets or exceeds 7 for C[C@@H](c1c(F)cc2ncccc2c1F)c1cnc2ccc(-c3cnn(CCO)c3)nn12 [Example 184]
result: MET

query: Determine whether measured pIC50 meets or exceeds 7 for Cn1cc(-c2ccc3ncc([C@@H](O)c4ccc5ncccc5c4)n3n2)cn1 [Example 152]
result: NOT MET

query: Determine whether measured pIC50 meets or exceeds 7 for Brc1ccc(-c2ccc3ncc(Cc4ccc5ncccc5c4)n3n2)cc1 [Example 19]
result: NOT MET

query: Determine whether measured pIC50 meets or exceeds 7 for O[C@H]1CCN(c2ccc3ncc(Cc4ccc5ncccc5c4)n3n2)C1 [Example 107]
result: MET

query: Determine whether measured pIC50 meets or exceeds 7 for CNC1CCN(c2ccc3ncc(Cc4ccc5ncccc5c4)n3n2)C1 (racemic) [Example 119]
result: MET
